target: Thioredoxin reductase (Homo sapiens, UniProt Q16881+Q9NNW7+Q86VQ6); assay: Inhibition of thioredoxin reductase; format: protein assay
experimental-readout: IC50

>  <compound-smiles>
C=C(C)COc1cccc2c1C(=O)C=CC21Oc2cccc3cccc(c23)O1

>  <experimental-value>
> 50 µM

$$$$
>  <compound-smiles>
C=CCOc1cccc2c1C(=O)C=CC21Oc2cccc3cccc(c23)O1

>  <experimental-value>
> 50 µM

$$$$
>  <compound-smiles>
O=C1C=CC2(OCCO2)c2cccc(O)c21

>  <experimental-value>
8.8 µM

$$$$
>  <compound-smiles>
O=C1C=CC2(Oc3cccc4cccc(c34)O2)c2cccc(OCc3ccncc3)c21

>  <experimental-value>
> 50 µM

$$$$
>  <compound-smiles>
O=C1C=CC2(Oc3cccc4cccc(c34)O2)c2cccc(OCc3ccc(-c4ccccc4Cl)o3)c21

>  <experimental-value>
> 50 µM

$$$$
>  <compound-smiles>
C#CCOc1cccc2c1C(=O)C=CC21Oc2cccc3cccc(c23)O1

>  <experimental-value>
> 50 µM

$$$$
>  <compound-smiles>
O=C1C=CC2(Oc3cccc4cccc(c34)O2)c2cccc(OCc3ccc(Cl)cc3)c21

>  <experimental-value>
> 50 µM

$$$$
>  <compound-smiles>
COc1cccc2c1C(=O)C=CC21OCCCO1

>  <experimental-value>
> 50 µM

$$$$
>  <compound-smiles>
O=C1C=CC2(Oc3cccc4cccc(c34)O2)c2cccc(O)c21

>  <experimental-value>
12 µM

$$$$
>  <compound-smiles>
O=C1C=C[C@H](O)[C@@]23O[C@@]12C1(Oc2cccc4cccc(c24)O1)[C@@H]1O[C@@H]1[C@@H]3O

>  <experimental-value>
13.5 µM

$$$$
>  <compound-smiles>
O=C1C=CC2(Oc3cccc4cccc(c34)O2)c2cccc(OCc3ccc(-c4cccc(C(F)(F)F)c4)o3)c21

>  <experimental-value>
> 50 µM

$$$$
>  <compound-smiles>
O=C1C=CC2(Oc3cccc4cccc(c34)O2)c2cccc(OCc3ccoc3)c21

>  <experimental-value>
> 50 µM

$$$$
>  <compound-smiles>
COc1ccc(COc2cccc3c2C(=O)C=CC32Oc3cccc4cccc(c34)O2)cc1

>  <experimental-value>
> 50 µM

$$$$
>  <compound-smiles>
O=C1C=CC2(Oc3cccc4cccc(c34)O2)c2cccc(OCc3ccc(Br)cc3)c21

>  <experimental-value>
> 50 µM

$$$$
